Molecular target: Nrg2 (UniProt P38082)
Sequence: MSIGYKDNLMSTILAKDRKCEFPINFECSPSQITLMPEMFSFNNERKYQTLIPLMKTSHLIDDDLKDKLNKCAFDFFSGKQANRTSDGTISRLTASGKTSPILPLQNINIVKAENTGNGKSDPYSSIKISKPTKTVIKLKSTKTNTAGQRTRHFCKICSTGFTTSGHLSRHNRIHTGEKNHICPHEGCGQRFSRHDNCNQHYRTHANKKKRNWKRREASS
Assay: PBM E-score (8-mer binding enrichment) (E-score (-0.5 to 0.5)); higher = stronger / more preferred TF binding
Conditions: protein concentration: 100 nM; construct: GST-full length
In all, about 33,000 sequences were measured (“E-score (-0.5 to 0.5)”: median about -8e-05, highest 2% from about 0.23 on). For the sample, the highest values were picked, then their nearest neighbours and some sequences at random.
# if value of PBM E-score reaches 0.1, tag Satisfied; if it stays below, tag Not satisfied

Example results:
> print(dat)
   itemsequence     grouplabel
1      CCGGAACA  Not satisfied
2      AGACCCTG      Satisfied

Decide: PBM E-score of AATATCGG >= 0.1?
Satisfied

Evaluate CGCTGGCA : PBM E-score at minimum 0.1?
Not satisfied

Is the recorded value of PBM E-score equal to or greater than 0.1 for this sequence? GCAAAACC
Not satisfied

Dear colleague, could you confirm whether CATATCGA has PBM E-score at or above 0.1?
Satisfied

Say whether GATATCGA shows PBM E-score of 0.1 or more.
Not satisfied

---

Molecular target: Nrg2 (UniProt P38082)
Sequence: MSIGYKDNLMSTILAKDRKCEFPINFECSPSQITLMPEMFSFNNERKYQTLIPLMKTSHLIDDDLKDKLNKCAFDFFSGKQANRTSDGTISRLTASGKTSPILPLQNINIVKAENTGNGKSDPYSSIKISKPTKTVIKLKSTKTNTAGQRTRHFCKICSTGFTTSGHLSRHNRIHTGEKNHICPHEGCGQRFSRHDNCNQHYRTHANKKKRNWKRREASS
Test: PBM E-score (8-mer binding enrichment) (E-score (-0.5 to 0.5)); higher = stronger / more preferred TF binding
Settings: protein concentration: 100 nM; construct: GST-full length
Over roughly 33,000 sequences, “E-score (-0.5 to 0.5)” has its median near -8e-05; the highest 2% begin near 0.23. This excerpt belongs to a sample that is enriched for the highest values.
Please enter 1 where PBM E-score is greater than or equal to 0.09, and 0 where it is lower.

> print(dat)
   itemsequence  grouplabel
1      GACAAGAC           1
2      CTAGTACA           0
3      CCCGAGGC           0

Decide: is the reported value of PBM E-score for AAGTCTAT equal to or greater than 0.09?
0

Say whether CTGCGATC shows PBM E-score of 0.09 or more.
0

Record AATGCGAG ; criterion: PBM E-score no lower than 0.09. Met?
1

Check this sequence for PBM E-score at or above 0.09: AGGCTAGC
0

In plain terms: is recorded PBM E-score at least 0.09 for AATAAAGT ?
1

Does the sequence GACAAAAA have recorded PBM E-score that is 0.09 or more?
0

Does the sequence GACAACTA have recorded PBM E-score that is 0.09 or more?
1

Values compiled from the supplement of paper PMC3334620.
